# system: human MC4R receptor (human, UniProt P32245 1-332)
# Sequence (P32245 whole entry): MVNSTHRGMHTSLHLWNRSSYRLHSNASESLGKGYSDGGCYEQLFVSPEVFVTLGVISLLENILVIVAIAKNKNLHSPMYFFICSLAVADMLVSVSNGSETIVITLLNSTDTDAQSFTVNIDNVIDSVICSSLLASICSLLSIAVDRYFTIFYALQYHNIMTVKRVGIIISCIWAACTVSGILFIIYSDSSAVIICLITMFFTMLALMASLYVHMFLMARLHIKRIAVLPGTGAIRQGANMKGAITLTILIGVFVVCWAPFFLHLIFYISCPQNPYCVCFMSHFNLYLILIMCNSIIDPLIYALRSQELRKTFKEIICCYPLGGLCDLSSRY
# assay.overview: cell-based or functional assay
Positions of bridges follow the written chain, without caps; N, C: chain ends. Non-standard residues stand in square brackets, D forms with d. Cit = NC(=O)NCCC[C@H](N)C(=O)O; Aib = CC(C)(N)C(=O)O
MC4R selectivity vs MC1R values for the binders below.

Ac-C[Aib][Cit][dF]RWC-NH2 (disulfide 1-7; SMILES CC(=O)N[C@H]1CSSC[C@@H](C(N)=O)NC(=O)[C@H](Cc2c[nH]c3ccccc23)NC(=O)[C@H](CCCNC(=N)N)NC(=O)[C@@H](Cc2ccccc2)NC(=O)[C@H](CCCNC(N)=O)NC(=O)C(C)(C)NC1=O) [CTX-1633]; 942

With those in mind, consider the next binder.
Record summary for Ac-RC[dA]R[dF]RWC-NH2 (disulfide 2-8; SMILES CC(=O)N[C@@H](CCCNC(=N)N)C(=O)N[C@H]1CSSC[C@@H](C(N)=O)NC(=O)[C@H](Cc2c[nH]c3ccccc23)NC(=O)[C@H](CCCNC(=N)N)NC(=O)[C@@H](Cc2ccccc2)NC(=O)[C@H](CCCNC(=N)N)NC(=O)[C@@H](C)NC1=O) [CTX-1211] : reported MC4R selectivity vs MC1R = 3.12

Origin of measurements: patent US20240391954A1
